Values from patent US9249116B2

- ASSAY_PROTOCOL: Liver microsome stability assay
- Assay type: in vitro ADME
- TEST_PARAMETERS: rat liver microsomes, 10 μM, LC/MS
Please respond with 1 when measured RLM 3 h % Stability is strictly beneath 60%, and with 0 in all other cases.

Field: example entries. Status: answers known.
C=CCc1cccc(/C=N/NC(=O)CN2CCN(Cc3ccc(F)cc3)CC2)c1O ... 1
CCCc1cc(F)cc(/C=N/NC(=O)CN2CCN(C(=O)c3ccc(C(F)(F)F)cc3)CC2)c1O ... 0
O=C(CN1CCN(Cc2ccc(C(F)(F)F)cc2)CC1)N/N=C/c1cc(F)ccc1O ... 1
CCCc1cccc(/C=N/NC(=O)CN2CCN(C(=O)c3ccc(F)cc3)CC2)c1O ... 0
C=CCc1cc(F)cc(/C=N/NC(=O)CN2CCN(C(=O)c3ccc(F)cc3)CC2)c1O ... 0
CCCc1cccc(/C=N/NC(=O)CN2CCN(C(=O)c3ccc(C(F)(F)F)cc3)CC2)c1O ... 0

Ask: Lab note: RLM 3 h % Stability threshold 60%. Does this compound come in strictly under it? N#Cc1ccc(CN2CCN(CC(=O)N/N=C/c3cc(F)ccc3O)CC2)cc1
Result: 0

Ask: Does this compound meet the criterion RLM 3 h % Stability < 60%? CCCc1cc(F)cc(/C=N/NC(=O)CN2CCN(C(=O)c3ccc(F)cc3)CC2)c1O
Result: 0

Ask: is_below(RLM 3 h % Stability, 60%) for C=CCc1cccc(/C=N/NC(=O)CN2CCN(C(=O)c3ccc(C#N)cc3)CC2)c1O ?
Result: 0

Ask: Input C=CCc1cc(F)cc(/C=N/NC(=O)CN2CCN(C(=O)c3ccccc3)CC2)c1O ; condition: RLM 3 h % Stability strictly below 60%. Does it hold?
Result: 0

Ask: Given CCCc1cccc(/C=N/NC(=O)CN2CCN(Cc3ccc(F)cc3)CC2)c1O , is recorded RLM 3 h % Stability strictly lower than 60%?
Result: 1

Ask: Say whether its RLM 3 h % Stability is strictly beneath 60%. Entry: C=CCc1cccc(/C=N/NC(=O)CN2CCN(C(=O)c3ccccc3)CC2)c1O
Result: 0
